Test system: ASK2
Construct: gene MAP3K6
CONDITION: concentration: 1 μM, replicates: in singlicate; n = 1
READOUT: %Inh (%)
Response body: numeric value in %, unit text excluded.

Report %Inh for CC(=O)Nc1n[nH]c2ncc(-c3ccccc3)cc12 tested on ASK2.
23

Item CNc1nccc(-c2c(-c3ccc(F)cc3)ncn2C2CCN(C)CC2)n1 with ASK2 - %Inh?
0

Short answer please: %Inh, ASK2, entry NC(=O)c1sc(-n2cnc3ccccc32)cc1OCc1ccccc1F
0

Recall the recorded %Inh for Cc1ccc(O)cc1Nc1cc(C(F)(F)F)nc2ccc(-c3ccncc3)cc12 with ASK2 and state it.
0

Reported %Inh for ASK2, given FC(F)(F)c1ccc(-c2cc(-c3c[nH]nc3-c3ccccn3)ccn2)cc1 ?
0

Please tell me: %Inh of COc1ccc(Nc2nccc(N3CCC(NC(=O)Nc4ccc5c(c4)OCO5)C3)n2)cc1 (stereo not shown) , system ASK2?
5

# returns recorded %Inh (system: ASK2) for CNc1nccc(-c2c(-c3ccc(F)cc3)ncn2CCCN2CCOCC2)n1
12

Which %Inh is reported with ASK2 for this entry: Cl.O=S(=O)(c1cccc(F)c1)c1ccc(Nc2ncnc3cc(Br)sc23)cc1Cl ?
0

Find the measured %Inh: item Cc1ccc(C)c(NC(=O)NCCNc2ccnc(Nc3ccc(F)cc3)n2)c1 , target or system ASK2.
0

What value of %Inh on ASK2 does CSc1nn2c(=O)cc(N3CCOCC3)nc2n1Cc1cccc(Cl)c1Cl have?
0

Find %Inh (ASK2) for the entry COc1ccc(-c2oc3ncnc(N)c3c2-c2ccc(OC)cc2)cc1
7

What reported %Inh corresponds to O=C(c1ccc(-c2cc(-c3c[nH]nc3-c3ccccn3)ccn2)cc1)N1CCCC1 on ASK2?
0

ASK2 / %Inh / Fc1cccc(COc2ccc(Nc3ncnc4nn5ccccc5c34)cc2Cl)c1 : value?
0

Quick check: %Inh on ASK2, item c1ccc(-c2ccc3c(-c4ccnc(Nc5ccc6c(c5)OCCO6)n4)cnn3n2)cc1 ?
0

# returns recorded %Inh (system: ASK2) for O=C(Nc1ccccc1)Nc1ccc(Oc2ccc3nccn3n2)cc1
0

What is its %Inh for ASK2? Entry: Cl.c1ccc(Cn2ncc3cc(Nc4ncnc5ccccc45)ccc32)cc1
1

I'm curious: which %Inh was measured for FC(F)(F)c1cc(Nc2nccc(-c3c(-c4ccc(Cl)cc4)nn4ncccc34)n2)ccc1Cl tested on ASK2?
0

Please tell me: %Inh of Clc1ccc(-c2cc(-c3c[nH]nc3-c3ccccn3)ccn2)cc1 , system ASK2?;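 note: KINOMEscan kinase panel screen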
0

Short answer please: %Inh, ASK2, entry O=C(NCCCN1CCCC1=O)c1cnc(NCc2cc(Cl)ccc2Cl)nc1NC1CCNCC1
0
